test system: MS2 coat protein; test: apparent KD of MS2 coat protein; higher = weaker reporter binding; settings: Eterna round: R101; input ligand: FMN 200 uM
Give apparent KD of MS2 coat protein for every item shown.
Expressed in nM, but write only the number.

Task: Looking for the measured apparent KD of MS2 coat protein of GUAGCUAUCGGAGGAUAUUCAUACCGGAAACGGACAUGAGGAUCACCCAUGUGGCGAAAGCCAUGGGAGAAGGCCGAUAGCUAC [jl-sng2-3.01 #MUTATE_MAP] (puzzle (switch architecture): Same State NG 2) , can you help?
Output: 52.2

Task: Looking for the measured apparent KD of MS2 coat protein of AGACCUGCUCAGAAGGUGGGAACGAGGCUGGAAACAGCCUCGAAAUUAAAUCCUUGAGGAUCACCCAAGGAUAUGAGCAGGUCA [#SharedSequence - IExNG2: 12] (puzzle (switch architecture): Inverted Exclusion NG 2) , can you help?
Output: 84.3

Task: Looking for the measured apparent KD of MS2 coat protein of GCAGCUAAUGCAGGAUAUCAGCACGUGUAGUGCUGAGAAGGGCACAUGAGGAUUCUGUCUGUGAUCAAUUAAUAUUAAUGCUGC [salish99#hingeEx3_55-58_006] (puzzle (switch architecture): Exclusion NG 1) , can you help?
Output: 11.5

Task: Looking for the measured apparent KD of MS2 coat protein of AUGGUUGUCGUAGGAUAUGUAGGAUAUUCCUACAUGAGGAUCACCCAUGUUCGCAUGGAAGAAGGACAGAAGGACGAUGACCAA [salish99_SSNG2_008 #endbits investigation] (puzzle (switch architecture): Same State NG 2) , can you help?
Output: 9.65

Task: Looking for the measured apparent KD of MS2 coat protein of CAAUUGGCACAGAAGGGUGACAUGAGGAUCACCCAUGUAGCGUGGCUCUCAGGAGGAGCCACGCCACAGGAUAUGUGCCGGCAC [Anrilaage] (puzzle (switch architecture): Inverted Same State NG 2) , can you help?
Output: 102

Task: Looking for the measured apparent KD of MS2 coat protein of GGUCGACCUCAAGGAUAUGGACUGCAAAGCAGUCCAGAAGGUGAGGAUCACCCACCUACGGUCAGGAAACUGACCGAUCGACCA [#SharedSequence - ExNG1-2] (puzzle (switch architecture): Exclusion NG 1) , can you help?
Output: 117

Task: Looking for the measured apparent KD of MS2 coat protein of AAAUAAAUUCAAGGAUAUGACUCCGAAACGGAGUCAGAAGGUGAGGAUCACCCACCUAUGAUCAGACCUCAGGAAACUGAGGUC [#SharedSequence ExNG1 - 39] (puzzle (switch architecture): Exclusion NG 1) , can you help?
Output: 6.56

Task: Looking for the measured apparent KD of MS2 coat protein of CUCCCUCCCUCCCUCCCUCCCUCCGAGGAUAUCCCAAACUCCCUCCCUCCCUCCCUCCCAAAUUCCCAGAAGGCCCUUUUUCCC [2nd design] (puzzle (switch architecture): Small Loop Same State NG 3) , can you help?
Output: 4.61

Task: Looking for the measured apparent KD of MS2 coat protein of UGUGUUAUCGGAGGAUAUCGAUAUCAAACAUGAGGAUCACCCAUGUUGAGGAUCACCCAUGUCCACGAGAAGGCCGGCGUACUG [My 7th design] (puzzle (switch architecture): Same State NG 2) , can you help?
Output: 12.5

Task: Looking for the measured apparent KD of MS2 coat protein of AAAUAAAUUGAAGGAUAUCAGGGUGCACCUCAGUAAAACUGAGGUGCACCCUGAGAAGGUCGAGGAUCACCCGAUCUAAAUAAA [#SharedSequence SLExNG1: 1-2] (puzzle (switch architecture): Small Loop Exclusion NG 1) , can you help?
Output: 12

Task: Looking for the measured apparent KD of MS2 coat protein of UAAAUAGAUCCUAGAGGAUCACCCUAGGAUAUCACCGUCGAGGUGCCAUAAUGGCACCUCGACGGUGAGAAGGAGGGAAAUAAA [#SharedSequence - SLExNG3: 2] (puzzle (switch architecture): Small Loop Exclusion NG 3) , can you help?
Output: 77.8

Task: Looking for the measured apparent KD of MS2 coat protein of AGAGCUGCUCAGAAGGAGGAUCACCCUUUCGAAAGAAAUACGGAGGCUGAAAAGCCUCCGAAAUCUUAGGAUAUGAGCAGCUCA [#SharedSequence - IExNG2: 6] (puzzle (switch architecture): Inverted Exclusion NG 2) , can you help?
Output: 166

---

test system: K4 kissing-loop RNA reporter; assay: apparent KD of K4 kissing-loop reporter; higher = weaker reporter binding; conditions: Eterna round: R107; input ligand: tryptophan 2.4 mM
MEASURE_NAME: apparent KD of K4 kissing-loop reporter
Form field: result (number plus unit)

Task: Give recorded apparent KD of K4 kissing-loop reporter with K4 kissing-loop RNA reporter for the following sequence: GGAUAGGACAGAGGAUAUGGUAGUGAUGUUACCAAACUGGUUACUCUUGUCAGAAAACUGGCAUCUCCAGAAGGCUGUCCUAUCG [KL-XFMN-B10]
Output: 127 nM

Task: Give recorded apparent KD of K4 kissing-loop reporter with K4 kissing-loop RNA reporter for the following sequence: UACAGGGAUAGUGAUGUUAUCCCAUGUGAUACCAGUGCCAUCCAACACCCUUGGCAGCAUACGGGCAGUGAUGUUGUUCUUGGUA [#16 K4 Theophylline A Exclusion]
Output: 80.1 nM

Task: Give recorded apparent KD of K4 kissing-loop reporter with K4 kissing-loop RNA reporter for the following sequence: UGUACCGAGUCAGGAUAUGGCGUCGAAAGACGAAUGCUAGUGAUGUUAGGGAUCUGCGAAAGCAGUUCAGAAGGGACUUGGUACU [FmnBS 26 G36+U67]
Output: 338 nM

Task: Give recorded apparent KD of K4 kissing-loop reporter with K4 kissing-loop RNA reporter for the following sequence: `UCCUAGGCUCGAAAGAGCCUAGGAUAUACUCAGGAUAUCCGGAAACGGAGAAGGGAGUAACUAGUGAUGUUAGGGAUUCCCUAUU`
Output: 96.5 nM

Task: Give recorded apparent KD of K4 kissing-loop reporter with K4 kissing-loop RNA reporter for the following sequence: CCCGUUGCGGCGGCCGCCACUGACUUAUUGAUUAGGUUGCCAGUGAUGUUGGCCACCGGUCAAUACAGGACCGGGCCAUAGCGGG [Ceisreatte]
Output: 99.1 nM

Task: Give recorded apparent KD of K4 kissing-loop reporter with K4 kissing-loop RNA reporter for the following sequence: GUAGGAUGAGGAGGAGGAUGAAAUACUGAAGGAGCGCAGAGAAAUGCAGGUAGGUCGCGGUAAGGAAGUAUAGUGAUGUUAUAUA [#07 K4 Arginine A Same State]
Output: 449 nM

Task: Give recorded apparent KD of K4 kissing-loop reporter with K4 kissing-loop RNA reporter for the following sequence: `GGUAGCAUGGCGGCCGCCACUACCUAGUGAUGUUAGGCUGUGGACAUAGGAGCAAGAUAAAUAUGUAGGACCGGGCCAUGCUACC`
Output: 111 nM

Task: Give recorded apparent KD of K4 kissing-loop reporter with K4 kissing-loop RNA reporter for the following sequence: CUGCCUCACUCGGCCGCCACUGUAUAAAUGUGACAGUGAUGUUGUCGUCGGAAAGGGCACUUAGGCAGGACCGGGAGUUUCAGGC [theeternabot_exclusion_KL_Trp_B_20]
Output: 686 nM

Task: Give recorded apparent KD of K4 kissing-loop reporter with K4 kissing-loop RNA reporter for the following sequence: UGUCAUUGGUCGGCCGCCACUAGGACCGGGUUUUGCCUAGUGAUGUUAGUAUGAACGGCCGCCACUAGGACCGGGACCGAUGACU [KL-SSTryp-B26 #DoubleAptamer]
Output: 105 nM

Task: Give recorded apparent KD of K4 kissing-loop reporter with K4 kissing-loop RNA reporter for the following sequence: AACUGUCAAGGACAACAUUACUGAGGUGAUACCAGGUUUGAGAGGAUCCCUUGGCAGCACCAACUUGCAGUGAUGUUGCAAGUAA [BrourdMod 15 - Jieux - Exclusion - Theophylline A]
Output: 243 nM

Task: Give recorded apparent KD of K4 kissing-loop reporter with K4 kissing-loop RNA reporter for the following sequence: CGAUACGGAAAUACGUGUCUCUAUUCAGAAGGAGCGUGGUAGUACACAGGUAGGUCGCUGAAUUUUAAACUAGUGAUGUUAGUCU [JR_SSArginiA_Sub005]
Output: 259 nM

Task: Give recorded apparent KD of K4 kissing-loop reporter with K4 kissing-loop RNA reporter for the following sequence: AUGCGCGUGCGAUGGAAAUCGCACGCGCAUCGAGGACCGGUACGGCCGCCACUCGCUCGCGCCGAGUGAUGUUCGGCCGGCGAAC [#2 SameState - Tryptophan_A Attempt #3 (HarryS)]
Output: 599 nM

---

Give apparent KD of K4 kissing-loop reporter for every item shown.
tested on: K4 kissing-loop RNA reporter; experiment: apparent KD of K4 kissing-loop reporter; higher = weaker reporter binding; conditions: Eterna round: R107; input ligand: none;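 also: bound reporter read as fluorescence of individual clusters on recovered sequencing chips by microscopy, with normalized cluster intensities fitted with a binding model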
Expressed in nM, but write only the number.

Task: Looking for the measured apparent KD of K4 kissing-loop reporter of UCACCGCCUAGUGAUGUUACGCGACUCAGAAAGGAUAUAAUCAAUCUUAGAAGGUUCACACCGUAUGGAUAUUAUCUAUCUCGUU [theeternabot_exclusion_KL_FMN_A_39] , can you help?
Output: 427

Task: Looking for the measured apparent KD of K4 kissing-loop reporter of `GGUAGCAUGGCGGCCGCCACUGAGGCCCUAUGCGAGUCCUCUACAACCUAGUGAUGUUAGGCGUCCAGGACCGGGCCAUGCUACC` , can you help?
Output: 71.2

Task: Looking for the measured apparent KD of K4 kissing-loop reporter of AUAUCUGAUAGCAGUGAUGUUGCUUCAGAUACCAGACGAGAUCAUGUCCCUUGGCAGCUGACACGGCACGUGCUAGGUUAGAUGA [Theo A Ex t2] , can you help?
Output: 101

// data source = the supplement of paper PMC9170038
